assay-details: viability loss in HEK293T kidney cells – cell-based, ATP luminescence, cherry-pick, set 6, cytotoxicity control, dose response (AID 1053126)
particulars: CellTiter-Glo ATP luminescence, 72 h; series mostly up to 26 µM
Entries with a potency or affinity are not part of this list. The source made the active and inactive calls.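 Rule for the calls: active = cell killing with a fitted half-effect concentration at or below twice the top valid dose; inconclusive = flat curve with 30 to 70 percent drop, or poor fit; inactive = the rest.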
readout-label: outcome

Examples with their reported outcome follow.
compound	readout-label	experimental-result
CCCN1CCc2c(sc(NC(=O)C3CCN(S(=O)(=O)c4cccs4)CC3)c2C(N)=O)C1	outcome	inactive
CCc1nc2ccc(C(=O)NCCc3c[nH]c4ccccc34)cn2c1N(C=O)CCC(C)C	outcome	inactive
Cn1c(=N)c(S(=O)(=O)c2ccccc2)cc2c(=O)n3ccccc3nc21	outcome	inactive
CCN(CC)Cc1c(O)c(Cl)cc2c(C)cc(=O)oc12	outcome	inactive
CCc1cccc(OC2OC(CO)C(O)C(O)C2NC(C)=O)c1 (centres undefined)	outcome	inactive
CCCCCCc1cc2cc(S(=O)(=O)c3ccc(C)cc3)c(=O)oc2cc1O	outcome	inactive
C[C@H](NC(=O)c1nc[nH]c1C(=O)N[C@@H](Cc1ccccc1)C(=O)OC(C)(C)C)C(=O)OCc1ccccc1	outcome	inactive
CCOc1ccc(-n2c(SCC(=O)Nc3nccs3)nnc2-c2ccoc2C)cc1	outcome	inactive

Please look at the following compound next.
Ask: Provide measured outcome value, entry: O=C(O)C1=CC[C@@H](c2ccc(Cl)cc2)N(S(=O)(=O)c2ccc(Cl)cc2)[C@H]1c1ccc(F)cc1
Result: inactive
